The values you see were collected from patent US20060234909A1.

test system: HT-29 colorectal carcinoma; assay: Cytotoxicity assay (monolayer), HT-29; format: cell-based; conditions: HT29, ML (monolayer); read-out: HT29 (EC50 Ave) ML;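 further: monolayer cultures tested in triplicate, compound exposure for three days against DMSO vehicle controls, EC50 fitted from dose-response curves and averaged across all tests and lots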
readout: EC50

| molecule | readout | result_value |
| --- | --- | --- |
| CC[C@]1(O)CC2CN(CCc3c([nH]c4ccccc34)[C@@](C(=O)OC)(c3cc4c(cc3OC)N(C)[C@H]3C(O)(C(=O)NCCOCCOCCOCCN)[C@H](O)[C@]5(CC)C=CCN6CCC43[C@@H]65)C2)C1 (stereo partly drawn) | EC50 | 20 to 100 nM |
| CC(=O)O[C@H]1C(=O)[C@]2(C)[C@@H](OC(=O)NCCCCCCN)C[C@H]3OC[C@@]3(OC(C)=O)[C@H]2[C@H](OC(=O)c2ccccc2)[C@]2(O)C[C@H](OC(=O)[C@H](O)[C@@H](NC(=O)c3ccccc3)c3ccccc3)C(C)=C1C2(C)C | EC50 | < 20 nM |
| CC(=O)O[C@@]12CO[C@@H]1C[C@H](O)[C@@]1(C)C(=O)[C@H](OC(=O)CCCCCCNC(=O)OCc3ccccc3)C3=C(C)[C@@H](OC(=O)[C@H](O)[C@@H](NC(=O)c4ccccc4)c4ccccc4)C[C@@](O)([C@@H](OC(=O)c4ccccc4)[C@H]21)C3(C)C [PXL-10Es-Alk(6)-NH(Z)] | EC50 | < 20 nM |
| CC[C@H](C)[C@H](NC(=O)[C@H](Cc1ccc(O)cc1)NC(=O)[C@H](CCC(=O)O)NC(C)=O)C(=O)N[C@@H](Cc1ccc(O)cc1)C(=O)NCC(=O)N[C@@H](CO)C(=O)N[C@@H](Cc1ccccc1)C(=O)N[C@@H](CCCCN)C(=O)NCCCOCCOCCOCCCNC(=O)O[C@H]1C(=O)[C@@]2(C)[C@H]([C@H](OC(=O)c3ccccc3)[C@]3(O)C[C@H](OC(=O)[C@H](O)[C@@H](NC(=O)c4ccccc4)c4ccccc4)C(C)=C1C3(C)C)[C@]1(OC(C)=O)CO[C@@H]1C[C@@H]2O | EC50 | > 100 nM |
| C=CCOC(=O)O[C@@H](C(=O)O[C@H]1C[C@@]2(O)[C@@H](OC(=O)c3ccccc3)[C@@H]3[C@]4(OC(C)=O)CO[C@@H]4C[C@H](O)[C@@]3(C)C(=O)[C@H](OC(C)=O)C(=C1C)C2(C)C)[C@@H](NC(=O)c1ccccc1)c1ccccc1 | EC50 | < 20 nM |
| CC[C@H](C)[C@H](NC(=O)[C@H](Cc1ccc(O)cc1)NC(=O)C(C)(C)C)C(=O)N[C@@H](Cc1ccc(O)cc1)C(=O)NCC(=O)N[C@@H](CO)C(=O)N[C@@H](Cc1ccccc1)C(=O)N[C@@H](CCCNC(=N)N)C(=O)NCCCOCCOCCOCCCNC(=O)O[C@H]1C(=O)[C@@]2(C)[C@H]([C@H](OC(=O)c3ccccc3)[C@]3(O)C[C@H](OC(=O)[C@H](O)[C@@H](NC(=O)c4ccccc4)c4ccccc4)C(C)=C1C3(C)C)[C@]1(OC(C)=O)CO[C@@H]1C[C@@H]2O [Pv-YIYGSFR-PEG(13)-10Ca-PXL] | EC50 | > 100 nM |
